Just for reference, ChEMBL document CHEMBL4406849 is where these values come from.

Entries and their IC50
Biological target: Bifunctional dihydrofolate reductase-thymidylate synthase (Cryptosporidium hominis, UniProt A0A0S4TER9)
Sequence (A0A0S4TER9 whole entry): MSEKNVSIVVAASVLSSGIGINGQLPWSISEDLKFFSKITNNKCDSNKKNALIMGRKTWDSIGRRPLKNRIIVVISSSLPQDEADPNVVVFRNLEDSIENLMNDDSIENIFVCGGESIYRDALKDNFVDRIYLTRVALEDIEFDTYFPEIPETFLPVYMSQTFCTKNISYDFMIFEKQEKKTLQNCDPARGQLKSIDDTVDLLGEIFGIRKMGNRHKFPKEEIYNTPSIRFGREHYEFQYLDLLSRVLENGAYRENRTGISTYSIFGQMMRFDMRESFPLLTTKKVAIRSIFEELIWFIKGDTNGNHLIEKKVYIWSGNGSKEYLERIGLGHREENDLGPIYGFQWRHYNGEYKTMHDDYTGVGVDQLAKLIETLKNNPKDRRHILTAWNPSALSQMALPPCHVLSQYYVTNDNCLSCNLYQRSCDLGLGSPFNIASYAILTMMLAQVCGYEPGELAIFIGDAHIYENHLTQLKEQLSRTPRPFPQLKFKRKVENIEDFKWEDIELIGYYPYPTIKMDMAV
Experiment: Inhibition of recombinant Cryptosporidium hominis TS-DHFR expresssed in Escherichia coli PA414 using dUMP and 5,10-methylenetetrahydrofolate as substrate by spectrometry
measurement-kind: IC50

| molecule | measurement-kind | measured-result |
| --- | --- | --- |
| Nc1nc2[nH]cc(Cc3ccc(/C=C/c4ccccc4C(=O)O)cc3)c2c(=O)[nH]1 | IC50 | > 100 µM |
| Nc1nc2[nH]cc(Cc3ccc(C(=O)N4CCCCC4C(=O)O)cc3)c2c(=O)[nH]1 (stereo not drawn) | IC50 | > 500 µM |
| Nc1nc2[nH]cc(Cc3ccc(C(=O)Nc4ccc(C(=O)O)cc4)cc3)c2c(=O)[nH]1 | IC50 | > 100 µM |
